src = ChEMBL document CHEMBL1201862

Give measured GI50 for each item. Keep answers brief.
Tested on: OVCAR-8
Test: NCI tumour cell line growth inhibition, 48 h
The source made the active and inactive calls. No stated cut-off is given here; in the data, active = GI50 up to about 1.1 µM and inactive = higher.

# get_value(readout= GI50, system= OVCAR-8) for Cc1c(C(=O)CC(=O)C(=O)Nc2ccc(Cl)c(Cl)c2)[n+]([O-])c2ccccc2[n+]1[O-]
17.2 µM (inactive)

Form field: GI50 recorded for O=c1[nH]c2cc([N+](=O)[O-])ccc2nc1/C(=N\NO)C(O)c1ccc([N+](=O)[O-])cc1 (stereo not given) with OVCAR-8 (enter value)
> 100 µM (inactive)

Request: GI50, test system OVCAR-8, entry c1ccc(C(OCCN2CC3CCC(C2)N3)c2ccccc2)cc1
> 100 µM (inactive)

State its GI50 on OVCAR-8: Cc1ccc2oc(=O)cc(CC(=O)O)c2c1
> 100 µM (inactive)

Recall the recorded GI50 for N#CCCC1(CCC#N)S(=O)(=O)OCCOS1(=O)=O with OVCAR-8 and state it.
89.1 µM (inactive)
